- protocol.text: blockers of CRF-binding protein–CRF-R2 complex – cell-based, uHTS hits, 384-well, dose response (AID 651639)
- Format: functional, Homo sapiens
- experimental.conditions: read-out: IC50_Mean
The source made the active and inactive calls.
Use one of these outcomes when replying: active, inactive

[[record]]
compound = "CN(c1ccccc1)S(=O)(=O)c1cccc(NC(=O)COc2cccc([N+](=O)[O-])c2)c1"
cat = "inactive"

[[record]]
compound = "CCCCC[C@@H]1C=C(C(=O)O)[C@H](c2cccc(C)c2)N1S(=O)(=O)c1ccc(C)cc1"
cat = "inactive"

[[record]]
compound = "CC(=O)Nc1ccc(Nc2nc3ccccc3nc2NS(=O)(=O)c2ccc(Cl)c([N+](=O)[O-])c2)cc1"
cat = "active"

[[record]]
compound = "CN(C)c1ccc(C=C2C(=O)OC(C)(C)OC2=O)cc1"
cat = "active"


// query Status in this test for CO/N=C/C(C#N)c1ncc(C(F)(F)F)cc1Cl (stereo not given) ?
// result active

====

- system.tested: Carboxy-terminal domain RNA polymerase II polypeptide A small phosphatase 1 (Homo sapiens, UniProt Q9GZU7)
- Sequence (Q9GZU7 whole entry): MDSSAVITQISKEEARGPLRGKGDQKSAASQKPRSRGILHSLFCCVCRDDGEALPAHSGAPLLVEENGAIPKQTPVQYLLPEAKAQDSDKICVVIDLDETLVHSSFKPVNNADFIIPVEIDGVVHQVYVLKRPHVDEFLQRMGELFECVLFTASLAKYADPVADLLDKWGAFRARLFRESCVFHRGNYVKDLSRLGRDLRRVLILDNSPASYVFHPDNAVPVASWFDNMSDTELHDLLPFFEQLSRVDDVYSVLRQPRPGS
- protocol.text: CTDSP1 inhibitors, concentration-response, biochemical, absorbance readout, ultra-high-throughput screen actives (AID 540297)
- Assay type: functional
Calls of active or inactive are those of the source.
property.name: IC50

Below, each entry is followed by its recorded IC50 result.
[[record]]
compound = "O=C(N/N=C/C=C/c1ccc([N+](=O)[O-])cc1)c1cccs1"
observed_measurement = "4.28 µM (active)"

[[record]]
compound = "CC1(C(O)(C#CC[N+]2(C)CCCCC2)c2ccccc2)CCCC1 (configuration not stated)"
observed_measurement = "9.1 µM (active)"

[[record]]
compound = "O=C(COC(=O)/C=C/c1ccco1)Nc1ncc(C(F)(F)F)cc1Cl"
observed_measurement = "4.77 µM (active)"

[[record]]
compound = "Cc1ccc(NC(=O)CSc2ccccc2NC(=O)c2ccccc2Cl)cc1Cl"
observed_measurement = "7.38 µM (active)"

[[record]]
compound = "C=CCNC(=O)c1ccc(Cn2c(=S)[nH]c3cc4c(cc3c2=O)OCO4)cc1"
observed_measurement = "8.27 µM (active)"


# compound Cc1ccccc1NC(=O)CN1C(=O)S/C(=C\c2ccc(-c3cc(C(=O)O)ccc3C)o2)C1=O ; its IC50 = 1.44 µM (active)

get_value(item= O=c1oc(-c2ccccc2)nc2sc3c(c12)CCC3 , readout=IC50) returns 9.39 µM (active)

Note to self: IC50 recorded for COc1ccc(/C=C(\NC(=O)c2ccccc2)C(=O)OC[C@@H]2CCC[N+]3(C)CCCCC23)cc1OC (some centres not stated) was 6.62 µM (active)

Please fill in: IC50 reported for CCOC(=O)/C=C1\CC(C(=O)OCC)Oc2c(OC)cccc21 (configuration not stated) = 16.7 µM (active)

compound C#Cc1ccc([C@@H]2C=C(C(=O)O)O[C@H](OCC)[C@H]2CCCO)cc1 , IC50 observed: 4.59 µM (active)

// field: IC50; key: COCCN(C(=O)COC(=O)Cc1coc2cc3c(cc12)CCC3)c1c(N)n(Cc2ccccc2)c(=O)[nH]c1=O ; value = 6.23 µM (active)

IC50 recorded for this compound, CC#CC#Cc1cccc(=O)o1 , is 16.5 µM (active)

====

- system.tested: Cytochrome P450 1A2 (Homo sapiens, UniProt P05177);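 note: PubChem cytochrome P450 panel assay, CYP1A2 panel member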
- Sequence (P05177 whole entry): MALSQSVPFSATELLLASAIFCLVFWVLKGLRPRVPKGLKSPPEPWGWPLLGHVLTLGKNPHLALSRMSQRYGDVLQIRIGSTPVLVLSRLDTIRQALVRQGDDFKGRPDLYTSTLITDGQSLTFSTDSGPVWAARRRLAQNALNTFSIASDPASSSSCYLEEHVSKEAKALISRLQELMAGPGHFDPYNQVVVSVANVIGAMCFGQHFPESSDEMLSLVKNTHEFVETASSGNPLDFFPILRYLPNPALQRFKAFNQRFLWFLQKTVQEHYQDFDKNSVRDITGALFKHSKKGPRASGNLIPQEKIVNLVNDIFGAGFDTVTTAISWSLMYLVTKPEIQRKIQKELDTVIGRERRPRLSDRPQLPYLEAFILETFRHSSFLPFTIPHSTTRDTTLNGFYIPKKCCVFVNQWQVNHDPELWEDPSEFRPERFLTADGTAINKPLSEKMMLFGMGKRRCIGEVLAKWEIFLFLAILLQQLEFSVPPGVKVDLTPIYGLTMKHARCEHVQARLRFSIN
Calls of active or inactive are those of the source.
The compounds listed here are annotated with their AC50.

Example entries begin here.
[[record]]
compound = "N[C@H](C(=O)O)[C@H](OCc1ccccc1)C(=O)O"
observed_measurement = "31.6 µM (inconclusive)"

[[record]]
compound = "CN1C(=O)c2ccccc2C(C(=O)O)C1c1cn(C)c2ccccc12 (stereo not drawn)"
observed_measurement = "39.8 µM (inconclusive)"

[[record]]
compound = "c1ccc(CN2CC[C@@H](CNc3ncnc4ccccc34)C2)cc1"
observed_measurement = "6.31 µM (inconclusive)"

[[record]]
compound = "CCC(NC(=O)C1(C)CC1(Br)Br)c1ccc(C)cc1 (stereo not drawn)"
observed_measurement = "20 µM (inconclusive)"

[[record]]
compound = "CCc1ccc2c(c1)cc(CN(C(S)=Nc1cccc(C)c1)C1CC1)c1nnnn12"
observed_measurement = "12.6 µM (inconclusive)"


Item: COC(=O)[C@@]1(Cc2ccc(F)cc2)[C@H]2c3cc(C(=O)N4CCCC4)n(Cc4cccc5ccccc45)c3C[C@H]2CN1C(=O)c1ccccc1 | AC50: 15.8 µM (inconclusive)

Please fill in: AC50 reported for Cc1nc2ccccc2nc(C)c1=NO = 17.8 µM (inconclusive)

AC50 reported for this compound CC(=O)N1CCC2(CCN(Cc3cc(C(F)(F)F)cc(C(F)(F)F)c3)CC2)CC1 : 15.8 µM (inconclusive)

Memo: c1ccc2[nH]c(-c3cscn3)nc2c1 , reported AC50: 0.126 µM (active)

Lookup result for O=C1NCCCC1C(=O)Nc1ccccc1C(F)(F)F (stereo not drawn) ; measured AC50: 39.8 µM (inconclusive)

Looking up O=C(CSCc1ccccc1)Nc1cccc(C(=O)Nc2ccccc2C(=O)O)c1 , I see its AC50 listed as 15.8 µM (inconclusive)

The value of AC50 measured for the compound COc1cccc(OCCCOc2ccccc2C(C)C)c1 turned out to be 22.4 µM (inconclusive)

The compound O=C(Nc1ccccc1)OC[C@H](CN1CCCCC1)OC(=O)Nc1ccccc1 showed AC50 equal to 12.6 µM (inconclusive)

// AC50 lookup, compound = COc1ccc(-c2nc3cnc(N4CCN(C)CC4)nc3n(Cc3ccc(F)cc3)c2=O)cc1 , result: 10 µM (inconclusive)

Looking up O=c1c2ccccc2c2ccccc2c(=O)n1-c1cc2c3ccccc3ccc2c2ccccc12 , I found its AC50 recorded as 6.31 µM (inconclusive)

Given item CCOC(=O)c1cc(-c2ccccc2)sc1NC(=S)Nc1cc(C)ccn1 , the value recorded as its AC50 is 3.55 µM (inconclusive)

Just so you know, measured AC50 for O=C(CCc1ccccc1)NCc1cccnc1 came out at 31.6 µM (inconclusive)

Record summary for O=C(N[C@@H](c1ccccc1)[C@@H]1C[C@H]1C(=O)NCc1ccccn1)OCc1ccccc1 : reported AC50 = 10 µM (inconclusive)

====

- system.tested: Corticotropin-releasing factor receptor 2/Corticotropin-releasing factor-binding protein (Homo sapiens, UniProt P24387+Q13324)
- Sequence (Q13324 whole entry): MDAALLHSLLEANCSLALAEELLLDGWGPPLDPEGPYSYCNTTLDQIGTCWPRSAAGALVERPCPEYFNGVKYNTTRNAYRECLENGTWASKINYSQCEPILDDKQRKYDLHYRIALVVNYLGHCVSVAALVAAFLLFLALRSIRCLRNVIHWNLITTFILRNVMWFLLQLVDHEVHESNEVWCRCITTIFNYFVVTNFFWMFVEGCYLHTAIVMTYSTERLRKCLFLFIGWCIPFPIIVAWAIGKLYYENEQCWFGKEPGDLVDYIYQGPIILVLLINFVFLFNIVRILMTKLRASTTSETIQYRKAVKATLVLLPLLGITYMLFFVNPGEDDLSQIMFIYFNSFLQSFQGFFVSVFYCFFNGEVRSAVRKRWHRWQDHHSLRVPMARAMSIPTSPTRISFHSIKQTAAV
- Sequence (P24387 whole entry): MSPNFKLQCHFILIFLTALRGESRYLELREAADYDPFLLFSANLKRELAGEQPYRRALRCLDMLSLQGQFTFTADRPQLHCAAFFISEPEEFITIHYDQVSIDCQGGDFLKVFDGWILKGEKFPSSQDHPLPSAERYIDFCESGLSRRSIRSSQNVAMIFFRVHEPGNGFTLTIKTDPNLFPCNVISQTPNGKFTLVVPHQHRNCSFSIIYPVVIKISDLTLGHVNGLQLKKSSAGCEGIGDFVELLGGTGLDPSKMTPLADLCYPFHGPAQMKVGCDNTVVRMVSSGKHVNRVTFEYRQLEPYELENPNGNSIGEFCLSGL
- protocol.text: Dose Response confirmation of uHTS hits for small molecule antagonists of the CRF-binding protein and CRF-R2 receptor complex.
- Assay type: functional
- experimental.conditions: read-out: IC50_Mean
Activity calls are given as the source filed them.
Answer with one of the outcomes active, inactive

[[record]]
compound = "COc1ccc(NC(=O)c2nc3nccc(C)n3n2)cc1S(=O)(=O)N1CCOCC1"
cat = "inactive"

[[record]]
compound = "CC(C)(C)NC(=O)/C(=C/c1ccccc1F)NC(=O)c1ccc([N+](=O)[O-])cc1"
cat = "inactive"

[[record]]
compound = "CC(NC(=O)COC(=O)c1ccc2c(=O)n3c(nc2c1)CCCCC3)c1ccccc1 (stereo not given)"
cat = "inactive"

[[record]]
compound = "N#Cc1c(N)n(-c2cccc(C(=O)O)c2)c2nc3ccccc3nc12"
cat = "inactive"


// query Which result was noted for this compound in the test: COc1ccc(S(=O)(=O)N2CCN(C(=O)CCCN3C(=O)NC4(CCCC4)C3=O)CC2)cc1
// result inactive

// query Which outcome was entered for the compound Cc1c(-c2nc[nH]n2)sc(C#N)c1-c1ccccc1 in this test?
// result inactive

// query Can you look up the reported call for CCCCC[C@@H]1C=C(C(=O)O)[C@H](c2cccc(C)c2)N1S(=O)(=O)c1ccc(C)cc1 for me?
// result active

// query // param item: CN(C)c1ccc(C=C2C(=O)OC(C)(C)OC2=O)cc1 ; yields the recorded call
// result active

// query Status in this test for CC(=O)Nc1ccc(Nc2nc3ccccc3nc2NS(=O)(=O)c2ccc(Cl)c([N+](=O)[O-])c2)cc1 ?
// result active

// query Hi, sorry to bother you, what did the test record for O=C(NC1(C(F)(F)F)C(=O)Nc2c1c(=O)[nH]c(=O)n2Cc1ccccc1)c1ccc(Cl)cc1 (stereo not given) ?
// result inactive

// query Which outcome did this test record for the compound CC1CN(S(=O)(=O)c2ccc(C(=O)N3CCc4ccccc43)cc2)CC(C)O1 (stereo not given) ?
// result inactive

// query Could you kindly confirm the outcome this assay logged for CCOP(=O)(OCC)C(Nc1cccc([N+](=O)[O-])c1)c1ccccc1 (stereo not given) ?
// result inactive

// query In this assay, the call recorded for Cc1ccc(C(=O)OCn2nnc3ccccc3c2=O)cc1[N+](=O)[O-] was what?
// result inactive

// query Recorded call for CCOc1ccccc1N1CCN(C(=O)Cc2ccc(S(=O)(=O)N3CCOCC3)s2)CC1 ?
// result inactive

// query Write down the call the test reported for this compound. Item: CN(c1ccccc1)S(=O)(=O)c1cccc(NC(=O)COc2cccc([N+](=O)[O-])c2)c1
// result inactive

// query Would you mind telling me which call this test gave CC(=O)Nc1ccc(NC(=O)COc2ccc([N+](=O)[O-])cc2)cc1 ?
// result inactive

// query Kindly provide the recorded test outcome for the following compound: COc1ccc(CC(=O)N/N=C(\C)c2ccc(Br)s2)cc1
// result inactive

// query I'd appreciate the recorded outcome for COc1ccc(S(=O)(=O)N(C)CC(=O)NC2CCCCC2)cc1OC from this test.
// result inactive

// query Recorded test call requested for CCOC(=O)C1CCCN(C(=O)COC(=O)c2cccs2)C1 (stereo not given)
// result inactive

// query Answer briefly: the call reported for CO/N=C/C(C#N)c1ncc(C(F)(F)F)cc1Cl (stereo not given) in this assay.
// result active
